target: T1, human ROR1 (hROR1) (human, UniProt Q01973 30-937); assay: flow cytometry, HCT116-hROR1 cells
T1 construct: On HCT116-hROR1 transfectants, Mino cells or Ntera-2 cells, as the assay of each row says; also called receptor tyrosine kinase like orphan receptor 1
Assay Metric: Bmax (MFI)
A number alone suffices; assume MFI.

Known results for binders:
Binder | Unit Of Measurement | Bmax (MFI)
SRP2196-B09 (antibody, V domains shown, His/FLAG-tagged IgG1; also called Antibody 160) VH: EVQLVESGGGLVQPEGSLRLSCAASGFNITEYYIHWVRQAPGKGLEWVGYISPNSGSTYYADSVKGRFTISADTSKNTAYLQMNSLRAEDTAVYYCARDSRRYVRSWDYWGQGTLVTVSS VL: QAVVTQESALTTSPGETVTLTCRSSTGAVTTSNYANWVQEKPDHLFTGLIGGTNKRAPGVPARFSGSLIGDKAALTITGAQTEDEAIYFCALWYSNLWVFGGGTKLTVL | MFI | 15000
SRP2196-A01 (antibody, V domains shown, His/FLAG-tagged IgG1) VH: EVQLVESGGGLVQPGGSLRLSCAASGFNITGYYIHWVRQAPGKGLEWVGQISPNSGYTYYADSVKGRFTISADTSKNTAYLQMNSLRAEDTAVYYCARDSRRYVRGWDYWGQGTLVTVSS VL: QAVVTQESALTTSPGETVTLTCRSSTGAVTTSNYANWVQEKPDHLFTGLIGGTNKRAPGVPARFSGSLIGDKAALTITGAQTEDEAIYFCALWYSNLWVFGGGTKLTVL | MFI | 15800
SRP2196-A03 (antibody, V domains shown, His/FLAG-tagged IgG1; also called Antibody 150) VH: EVQLVESGGGLVQPGGSLRLSCAASGFNITQYHIHWVRQAPGKGLEWVGYISPNSGSTHEADSVKGRFTISADTSKNTAYLQMNSLRAEDTAVYYCARDSRRYVRGWDYWGQGTLVTVSS VL: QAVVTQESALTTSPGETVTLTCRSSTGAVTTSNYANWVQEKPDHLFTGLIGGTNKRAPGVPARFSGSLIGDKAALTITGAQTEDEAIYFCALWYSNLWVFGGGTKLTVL | MFI | 15400

Field Bmax (MFI) (entry SRP2196-A05 (antibody, V domains shown, His/FLAG-tagged IgG1) VH: EVQLVESGGGLVQPGGSLRLSCAASGFNITNYYIHWVRQAPGKGLEWVGYISPNSGATYQADSVKGRFTISADTSKNTAYLQMNSLRAEDTAVYYCARDSRRYVRSWDYWGQGTLVTVSS VL: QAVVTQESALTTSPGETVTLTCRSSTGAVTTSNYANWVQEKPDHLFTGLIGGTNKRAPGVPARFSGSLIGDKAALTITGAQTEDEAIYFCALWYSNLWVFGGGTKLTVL ) reads 14800

Lab note: measured Bmax (MFI) of SRP2196-C04 (antibody, V domains shown, His/FLAG-tagged IgG1; also called Antibody 162) VH: EVQLVESGGGLVQPGGSLRLSCAASGFNITGYYIHWVRQAPGKGLEWVGFIAPLSGSTHNADSVKGRFTISADTSKNTAYLQMNSLRAEDTAVYYCARESRRYVNPWDYWGQGTLVTVSS VL: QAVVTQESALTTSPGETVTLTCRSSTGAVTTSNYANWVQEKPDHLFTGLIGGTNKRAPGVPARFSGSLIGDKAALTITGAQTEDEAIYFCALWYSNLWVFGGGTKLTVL was 13800
